B1: Tyrosine-protein kinase Lck, residues 63 to 120; numbered along this chain, P06239 (parent)
chain: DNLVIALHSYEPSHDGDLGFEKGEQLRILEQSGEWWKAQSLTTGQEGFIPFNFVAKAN

variants of: B1; assay: abundance fitness (aPCA) (normalised: wild type 0, dead -1); higher = more abundant; growth selection in yeast, the domain comes from the species named; conditions: Homo sapiens
measurement_label: abundance fitness
Answers are plain numbers.

Hi! Can you tell me abundance fitness for each of these variants?
1. K37T
2. R27V
3. N2R
4. K37W

result:
[-0.267, -0.062, -0.32, -0.152]

Hi! Can you tell me abundance fitness for each of these variants?
1. W36F
2. G16Y
3. S40P
4. I28W

result:
1. -0.181
2. -0.218
3. -0.793
4. -0.941

Hi! Can you tell me abundance fitness for each of these variants?
1. K37N
2. Q45L
3. L3P
4. F20M

result:
1: -0.548; 2: -0.112; 3: -0.74; 4: -0.293

Hi! Can you tell me abundance fitness for each of these variants?
1. Q25V
2. A55D
3. S13Y

result:
1. -0.017
2. -0.102
3. -0.18

Hi! Can you tell me abundance fitness for each of these variants?
1. L18T
2. S32P
3. G19T
4. E11C
5. H8E
6. G33Q
7. L3N

result:
-0.714
-0.407
-0.375
-0.21
-0.096
-0.767
-0.159

Hi! Can you tell me abundance fitness for each of these variants?
1. F20S
2. L29F
3. G47W
4. I28A
5. K37F
6. W35L
7. A55F

result:
1. -0.949
2. -0.527
3. -0.831
4. -0.554
5. -0.229
6. -0.029
7. -0.369

Hi! Can you tell me abundance fitness for each of these variants?
1. G44S
2. Q25M
3. D17H
4. D17A

result:
1: -0.268; 2: 0.022; 3: 0.011; 4: -0.006
